From: PubChem BioAssay (NCATS)

# assay text: Quantitative High-Throughput drug screen in 47 multiple myeloma cell lines against the NCATS MIPE library collection: LP1_DSMZ cell viability assay (AID 1918982); further: nearly all actives have a fitted effect of over 35% in size
# condition details: LP1 myeloma viability, CellTiter-Glo ATP luminescence, 48 h; series mostly up to 45.8 µM
Results filed as inconclusive are left out. Calls of active or inactive are those of the source. The call rests on the fitted dose curve; in most records, active means well fitted cell-killing curve with a large enough effect; inconclusive means small, poorly fitted or top-dose-only effect, or effect the other way; inactive means no such curve, though single readings can be large or run the other way.
Outcomes: active, inactive

- molecule: "Cc1nc(Nc2n[nH]c3c2CN(C(=O)N[C@H](CN(C)C)c2ccccc2)C3(C)C)c2sccc2n1"
  qualitative label: "active"
- molecule: "C1Cc2[nH]nc(-c3nn[nH]n3)c2C1"
  qualitative label: "inactive"
- molecule: "Cc1c(Cn2c(C)nc3c(C(=O)O)cc(N4CCOCC4)cc32)cccc1C(F)(F)F"
  qualitative label: "inactive"
- molecule: "CCC[C@H](NC(=O)C(C#N)=Cc1cccc(Br)n1)c1ccccc1"
  qualitative label: "active"
- molecule: "COc1ccc(C=Cc2cc(OC)c(OC)c(OC)c2)cc1O"
  qualitative label: "inactive"
- molecule: "CNc1nccc(-c2cccnc2Oc2cc(C(=O)Nc3cccc(C(F)(F)F)c3)ccc2C)n1"
  qualitative label: "active"
- molecule: "CC(NCc1ccc2c(c1)nc(NC(=O)c1ccc(-c3cn[nH]c3)s1)n2CC(C)(C)O)C(C)(C)C (stereo unspecified)"
  qualitative label: "active"
- molecule: "CC(C)[C@H](C(=O)Nc1ccc(C(=O)NO)cc1)c1ccccc1"
  qualitative label: "active"
- molecule: "CC(=O)Nc1sc2c(c1-c1nc3ccccc3s1)CNC2"
  qualitative label: "active"
- molecule: "C=CC(=O)Nc1cc2c(Nc3ccc(F)c(Cl)c3)ncnc2cc1C#CC(C)(C)N1CCN(C)CC1"
  qualitative label: "active"
- molecule: "CC(=O)SC[C@@H](C)C(=O)N1CCC[C@H]1C(=O)N[C@@H](Cc1ccccc1)C(=O)O"
  qualitative label: "inactive"
